test: Inhibitory concentration against [3H]DPCPX binding to Adenosine A1 receptor from DDT1 MF2 cells
observedProperty: pIC50
Please report pIC50 as the negative decimal logarithm of the molar concentration, giving only the number.

-- ask Reported pIC50 for `CCCn1c(=O)c2nc(C3CCCC3)[nH]c2n(CCCNC(=O)c2ccc(S(=O)(=O)F)cc2)c1=O` : what is it?
-- reply 7.68

Data provenance: ChEMBL document CHEMBL1134949
